FYI, the data here is from ChEMBL document CHEMBL3098017.

target: Cytochrome P450 11B2, mitochondrial (Homo sapiens); experiment: Inhibition of CYP11B2 in human NCI-H295R cells assessed as inhibition of angiotensin-2-induced aldosterone production after 24 hrs by RIA; type: cell-based
Sequence (P19099 whole entry): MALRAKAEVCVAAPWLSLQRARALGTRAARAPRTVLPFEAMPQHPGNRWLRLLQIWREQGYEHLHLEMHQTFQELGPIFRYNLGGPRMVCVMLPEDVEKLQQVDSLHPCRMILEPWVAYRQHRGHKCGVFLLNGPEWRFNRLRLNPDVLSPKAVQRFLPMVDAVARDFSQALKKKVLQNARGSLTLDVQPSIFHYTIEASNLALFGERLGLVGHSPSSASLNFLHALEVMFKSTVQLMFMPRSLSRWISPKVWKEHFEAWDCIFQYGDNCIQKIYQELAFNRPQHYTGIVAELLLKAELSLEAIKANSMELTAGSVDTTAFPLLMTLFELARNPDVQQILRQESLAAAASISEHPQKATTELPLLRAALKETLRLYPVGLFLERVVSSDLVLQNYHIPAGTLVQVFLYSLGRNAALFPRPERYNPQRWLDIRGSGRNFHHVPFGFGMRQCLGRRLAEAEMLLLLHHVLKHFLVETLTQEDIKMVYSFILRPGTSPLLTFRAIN
Quantity Name: pIC50
Numbers only, as −log10 of the molar value.

Example results:
- Molecule: "N#Cc1ccc([C@H]2CCCCc3cncn32)c(Cl)c1"
  Study System: "Cytochrome P450 11B2, mitochondrial (Homo sapiens)"
  Numeric Readout: 7.80
- Molecule: "COc1cc(C#N)ccc1[C@H]1CCCCc2cncn21"
  Study System: "Cytochrome P450 11B2, mitochondrial (Homo sapiens)"
  Numeric Readout: 6.28
- Molecule: "N#Cc1ccc([C@H]2CCc3cncn32)c(Cl)c1"
  Study System: "Cytochrome P450 11B2, mitochondrial (Homo sapiens)"
  Numeric Readout: 7.89
- Molecule: "c1ccc(-c2ccccc2[C@H]2CCCCc3cncn32)cc1"
  Study System: "Cytochrome P450 11B2, mitochondrial (Homo sapiens)"
  Numeric Readout: 8.70
- Molecule: "N#Cc1ccc([C@H]2CCCCc3cncn32)c(-c2ccc(F)cc2)c1"
  Study System: "Cytochrome P450 11B2, mitochondrial (Homo sapiens)"
  Numeric Readout: 9.00

# batch: return pIC50 for each of the 3 molecules below
1. Cc1cc(C#N)ccc1C1CCCc2cncn21 (racemic)
2. N#Cc1ccc([C@H]2CCCCc3cncn32)c(F)c1
3. COC(=O)[C@]1(c2ccc(C#N)cc2OC)CCc2cncn21

Result string:
1: 6.33; 2: 7.38; 3: 8.52
